# testedOn: Opioid receptor (Rattus norvegicus, UniProt P33533+P34975+P33535)
# assayExplanation: Concentration required to inhibit opiate receptor using radioligand [3H]- Etorphine
# Format: protein assay
Recorded IC50, one value per entry.
// units = µM; emit number, no label

[[record]]
compound = "COC(c1cccc(O)c1)C1C2CN(C)CC1CN(C)C2 (centres undefined)"
quantitymeasured = "IC50"
result = 2.3

[[record]]
compound = "CCC(=O)OC(c1cccc(O)c1)C1C2CN(C)CC1CN(C)C2 (centres undefined)"
quantitymeasured = "IC50"
result = 0.53

[[record]]
compound = "CCC(=O)OC(c1ccccc1)C1C2CN(C)CC1CN(C)C2 (centres undefined)"
quantitymeasured = "IC50"
result = 7.6


Attention now turns to another entry.
In: Any idea what IC50 was measured for COC(c1ccccc1)C1C2CN(C)CC1CN(C)C2 (centres undefined) ?
Out: 7.2

Just for reference, ChEMBL document CHEMBL1123543 is where these values come from.
